- Format: in vivo, human
- condition description: human, plasma, oral, 5 mg
property measured: concentration at 72 h

| test smiles | property measured | data value |
| --- | --- | --- |
| CCOc1ccc(Cc2cc([C@@H]3S[C@H](CO)[C@@H](O)[C@H](O)[C@H]3O)c(OC)cc2C)cc1 | concentration at 72 h | 1.28 to 3.15 ng/mL |
